Test system: CD2F1 mice, L1210 leukemia ip, survival T/C
Experiment: NCI In Vivo Anticancer Drug Screen. Data for tumor model L1210 Leukemia (intraperitoneal) in CD2F1 (CDF1) mice
Conditions: endpoint: mean survival time; dose: 400.0 mg/kg/injection; schedule: Q04DX003 (ip); vehicle: saline; higher = longer survival
Inconclusive results and toxic doses are left out.
Metric name: T/C

{"Compound": "Nc1nc(N)c2nc(NCc3ccc(C(=O)NC(CCC(=O)O)C(=O)O)cc3)cnc2n1 (stereo not drawn)", "Metric name": "T/C", "Obs value": "100 % of control"}
{"Compound": "NCc1cccc([N+](=O)[O-])c1", "Metric name": "T/C", "Obs value": "98 % of control"}
{"Compound": "CN(CC(=O)C(C)(C)C)c1ccccc1", "Metric name": "T/C", "Obs value": "103 % of control"}
{"Compound": "FC(F)(F)COP1(OCC(F)(F)F)=NP(OCC(F)(F)F)(OCC(F)(F)F)=NP(OCC(F)(F)F)(OCC(F)(F)F)=NP(OCC(F)(F)F)(OCC(F)(F)F)=N1", "Metric name": "T/C", "Obs value": "105 % of control"}
{"Compound": "CC(=O)N(CC(C)C)N=O", "Metric name": "T/C", "Obs value": "94 % of control"}
{"Compound": "CCN(CC)CCNCc1c[nH]c(=S)[nH]c1=O", "Metric name": "T/C", "Obs value": "101 % of control"}
{"Compound": "CCOC(=O)c1cc2c3n(c1=O)CCCC3C(c1ccc(Cl)c(Cl)c1)OC2=O (stereo not drawn)", "Metric name": "T/C", "Obs value": "104 % of control"}
{"Compound": "CCOC1OC(C(O)CO)C(O)C(O)C1O (stereo not drawn)", "Metric name": "T/C", "Obs value": "101 % of control"}

----------
Test system: CD2F1 mice, L1210 leukemia ip, survival T/C
Assay: NCI In Vivo Anticancer Drug Screen. Data for tumor model L1210 Leukemia (intraperitoneal) in CD2F1 (CDF1) mice
Settings: endpoint: mean survival time; dose: 12.5 mg/kg/injection; schedule: Q04DX002 (ip); vehicle: saline with Tween-80; higher = longer survival
Toxic doses and inconclusive results are not listed.

{"Molecule": "CC1=NCCCN=C(C)C([N+](=O)[O-])C=NC(C)(C)CN=CC1[N+](=O)[O-].[Ni] (stereo unspecified)", "T/C": "97 % of control"}
{"Molecule": "NCC1C2CCC(C2)C1CCCNCCCC1C2CCC(C2)C1CN (stereo unspecified)", "T/C": "107 % of control"}
{"Molecule": "O=[N+]([O-])c1ccccc1-c1nn(-c2ccccc2)c2ccccc12", "T/C": "102 % of control"}
{"Molecule": "COCNC(=S)N/N=C/c1ccccn1", "T/C": "94 % of control"}
{"Molecule": "c1ccc2c(c1)cc1cnc3cccc4ccc2c1c43", "T/C": "96 % of control"}
{"Molecule": "COc1ccc(C2(O)C3CCC2CC3)cc1 (stereo unspecified)", "T/C": "96 % of control"}

----------
System: CD2F1 mice, L1210 leukemia ip, survival T/C
Experiment: NCI In Vivo Anticancer Drug Screen. Data for tumor model L1210 Leukemia (intraperitoneal) in CD2F1 (CDF1) mice
Settings: endpoint: mean survival time; dose: 100.0 mg/kg/injection; schedule: Q01DX009 (ip); vehicle: saline with Tween-80; higher = longer survival
Inconclusive results and toxic doses are left out.
In this section, each of the molecules is paired with its reported T/C.

{"Molecule": "CN(C)S(=O)(=O)c1ccccc1C1(O)c2ccccc2-c2ccccc21", "T/C": "87 % of control"}
{"Molecule": "c1cc2c3c(c1)nc(CCc1nc4cccc5c4n1CCC5)n3CCC2", "T/C": "92 % of control"}
{"Molecule": "O=C(O)C1C(C(=O)O)C(C(=O)O)C1C(=O)O (configuration not stated)", "T/C": "95 % of control"}
{"Molecule": "COc1cccc(OC)c1OC(=O)/C=C/C(=O)Oc1c(OC)cccc1OC", "T/C": "96 % of control"}
{"Molecule": "OC(c1ccccc1)(c1ccccc1)c1nc2ccccc2o1", "T/C": "107 % of control"}
{"Molecule": "NC(=O)N/N=C/C(c1ccccc1)c1ccccc1", "T/C": "105 % of control"}
{"Molecule": "COc1ccc(OCCOC(=O)Nc2cc(Cl)c(OC)cc2OC)cc1", "T/C": "92 % of control"}
{"Molecule": "CN1NC(c2ccc(Cl)cc2)C2CN(C3CCCCC3)C(=O)C21O (configuration not stated)", "T/C": "96 % of control"}
{"Molecule": "COC1=CC(c2ccccc2[N+](=O)[O-])OC1=O (configuration not stated)", "T/C": "97 % of control"}
{"Molecule": "COc1ccccc1NC(=S)N(C)C", "T/C": "101 % of control"}
{"Molecule": "OCC1(OC2OC(CBr)C(O)C(O)C2O)OC(CBr)C(O)C1O (configuration not stated)", "T/C": "91 % of control"}
{"Molecule": "CC(=O)CC(=O)Nc1cc(Cl)c(NC(=O)CC(C)=O)cc1Cl", "T/C": "97 % of control"}

----------
Test system: CD2F1 mice, L1210 leukemia ip, survival T/C
Assay: NCI In Vivo Anticancer Drug Screen. Data for tumor model L1210 Leukemia (intraperitoneal) in CD2F1 (CDF1) mice
Conditions: endpoint: mean survival time; dose: 100.0 mg/kg/injection; schedule: Q04DX003 (ip); vehicle: saline with Tween-80; higher = longer survival
Inconclusive results and toxic doses are left out.
Metric name: T/C

{"Compound": "Cc1ccc(S(=O)(=O)NCC(Br)CBr)cc1 (stereo unspecified)", "Metric name": "T/C", "Obs value": "100 % of control"}
{"Compound": "Cc1ccc(S(=O)(=O)OC2C3OCC(O3)C(O)C2O)cc1 (stereo unspecified)", "Metric name": "T/C", "Obs value": "97 % of control"}
{"Compound": "CCCCCCCCCCCCCCCCOc1ccc(S(=O)(=O)NC2CCCCC2)cc1[N+](=O)[O-]", "Metric name": "T/C", "Obs value": "90 % of control"}
{"Compound": "CC(=O)Nc1nnc([N+](=O)[O-])s1", "Metric name": "T/C", "Obs value": "95 % of control"}
{"Compound": "CC(=O)Nc1ccc([N+](=O)[O-])c(C(F)(F)F)c1", "Metric name": "T/C", "Obs value": "98 % of control"}
{"Compound": "CCOC(=O)c1c(O)csc1N", "Metric name": "T/C", "Obs value": "110 % of control"}
{"Compound": "CCCCOc1ccc(/C=N\\N=C\\c2ccc(OCCCC)cc2)cc1", "Metric name": "T/C", "Obs value": "88 % of control"}
{"Compound": "COc1cc(/C=N\\NC(=O)CC#N)cc(OC)c1OC", "Metric name": "T/C", "Obs value": "94 % of control"}
{"Compound": "OC(Cc1cnc2ccccc2n1)(C(F)(F)F)C(F)(F)F", "Metric name": "T/C", "Obs value": "94 % of control"}
{"Compound": "O=C(Nc1ccc(Nc2ccc(NC(=O)c3ccccc3)c3c2C(=O)c2ccccc2C3=O)c2c1C(=O)c1ccccc1C2=O)c1ccccc1", "Metric name": "T/C", "Obs value": "108 % of control"}
{"Compound": "CCN(CCS)Cc1ccccc1", "Metric name": "T/C", "Obs value": "98 % of control"}
{"Compound": "CN1CN(C)C(=O)S(=O)(=O)C1", "Metric name": "T/C", "Obs value": "92 % of control"}
{"Compound": "O=C1C(c2ccccc2)=C(c2ccccc2)CC(c2ccccc2)C1c1ccccc1 (stereo unspecified)", "Metric name": "T/C", "Obs value": "97 % of control"}
{"Compound": "Clc1ccccc1-c1nc2ccccc2[nH]1", "Metric name": "T/C", "Obs value": "96 % of control"}
{"Compound": "O=C(O)CC1C=CCC1 (stereo unspecified)", "Metric name": "T/C", "Obs value": "98 % of control"}
{"Compound": "CN(C)Cc1cc(C(C)(C)C)cc(C2CCCCC2)c1O", "Metric name": "T/C", "Obs value": "100 % of control"}
{"Compound": "CC(=O)N(C(C)=O)c1ncc2ccccc2c1-c1ccc(N)cc1", "Metric name": "T/C", "Obs value": "94 % of control"}
{"Compound": "NNc1nnc(Cl)cc1N", "Metric name": "T/C", "Obs value": "109 % of control"}
{"Compound": "CC(=O)OC1C2CCC(C2)C1C (stereo unspecified)", "Metric name": "T/C", "Obs value": "95 % of control"}
{"Compound": "CC1(c2ccccc2)NC(=O)NC1=O (stereo unspecified)", "Metric name": "T/C", "Obs value": "94 % of control"}
{"Compound": "CC(=O)Nc1ccc2c(c1)Cc1cc(NC(C)=O)c(Cl)cc1-2", "Metric name": "T/C", "Obs value": "103 % of control"}
{"Compound": "CC(CC(C)(C)C)O[Si](C)C1(C)CCCCC1 (stereo unspecified)", "Metric name": "T/C", "Obs value": "102 % of control"}
{"Compound": "CN(C)C(=O)NCCN(CCNC(=O)N(C)C)C(=O)N(C)C", "Metric name": "T/C", "Obs value": "98 % of control"}
{"Compound": "C(CN1CCOCC1)CN1CN(CCCN2CCOCC2)CN(CCCN2CCOCC2)C1", "Metric name": "T/C", "Obs value": "106 % of control"}
{"Compound": "OCCN1CCN(CCO)CC1.[Cl][Pt+2][Cl]", "Metric name": "T/C", "Obs value": "97 % of control"}
{"Compound": "COCC(=O)C(C(C)=O)C(c1ccc2c(c1)OCO2)C(C(C)=O)C(=O)COC (stereo unspecified)", "Metric name": "T/C", "Obs value": "96 % of control"}
{"Compound": "COC(=O)CC(C)Cc1ccc(OC)c(OC)c1 (stereo unspecified)", "Metric name": "T/C", "Obs value": "97 % of control"}
{"Compound": "Cc1ccc([N+](=O)[O-])c(N)n1", "Metric name": "T/C", "Obs value": "98 % of control"}
{"Compound": "CN(C)C(=O)N1CC1", "Metric name": "T/C", "Obs value": "98 % of control"}
{"Compound": "CC(=O)Nc1ccc(C(=O)O)cc1", "Metric name": "T/C", "Obs value": "96 % of control"}
{"Compound": "O=C(/C(=N\\O)c1ccc(Cl)cc1)c1ccc(Cl)cc1", "Metric name": "T/C", "Obs value": "95 % of control"}
{"Compound": "CCOc1ccccc1C1=CCCCCC1", "Metric name": "T/C", "Obs value": "98 % of control"}
{"Compound": "COC(=O)c1c(F)c(F)c(Nc2c(F)c(F)c(C(=O)OC)c(F)c2F)c(F)c1F", "Metric name": "T/C", "Obs value": "95 % of control"}
{"Compound": "Cc1cc(Cl)ccc1[NH-].Cc1cc(Cl)ccc1[NH-].[Cl][Pt+2][Cl]", "Metric name": "T/C", "Obs value": "94 % of control"}
{"Compound": "CC(C)(C)C1CC(=O)N(c2ccccc2)N1 (stereo unspecified)", "Metric name": "T/C", "Obs value": "106 % of control"}
{"Compound": "ClCc1ccc(CCl)c(Cl)c1Cl", "Metric name": "T/C", "Obs value": "96 % of control"}
{"Compound": "Cc1nc2c(O)cccn2c(=O)c1Cl", "Metric name": "T/C", "Obs value": "102 % of control"}
{"Compound": "Cc1[nH]c(=O)c(C(=O)O)c(C)c1[N+](=O)[O-]", "Metric name": "T/C", "Obs value": "96 % of control"}
{"Compound": "O=Cc1[nH]c(=S)[nH]c(=O)c1Cc1ccc(Cl)cc1", "Metric name": "T/C", "Obs value": "104 % of control"}
{"Compound": "CCc1c(C)c(C)cc(S(=O)(=O)O)c1C", "Metric name": "T/C", "Obs value": "101 % of control"}
{"Compound": "O=C(Nc1cc(Cl)ccc1Cl)c1ccc(Cl)cc1Cl", "Metric name": "T/C", "Obs value": "90 % of control"}
{"Compound": "O=[N+]([O-])O.[La]", "Metric name": "T/C", "Obs value": "92 % of control"}
{"Compound": "CCCc1ccc(OC)cc1", "Metric name": "T/C", "Obs value": "98 % of control"}
{"Compound": "C1=CC(=P(c2ccccc2)(c2ccccc2)c2ccccc2)C=C1", "Metric name": "T/C", "Obs value": "94 % of control"}
{"Compound": "CCn1c(C)nc2cc(C(N)=O)ccc21", "Metric name": "T/C", "Obs value": "100 % of control"}
{"Compound": "CCOC(=O)C(C)C1(O)CCCCC1 (stereo unspecified)", "Metric name": "T/C", "Obs value": "101 % of control"}
{"Compound": "CC(C)CCCC(C)C1CCC2C3CC=C4CC(OCCC(C)C)CCC4(C)C3CCC12C (stereo unspecified)", "Metric name": "T/C", "Obs value": "97 % of control"}
{"Compound": "Cn1c(=O)c2[nH]c(-c3ccc4c(c3)OCO4)nc2n(C)c1=O", "Metric name": "T/C", "Obs value": "89 % of control"}
{"Compound": "O=C1c2ccccc2-c2ccc3c4ccc5c6c(ccc(c7ccc1c2c73)c64)C(=O)c1ccccc1-5", "Metric name": "T/C", "Obs value": "90 % of control"}
{"Compound": "COc1cc2c(cc1OC)C1CCN3C(=O)CCC3N1CC2 (stereo unspecified)", "Metric name": "T/C", "Obs value": "102 % of control"}
{"Compound": "NC(=S)N/N=C\\c1cccs1", "Metric name": "T/C", "Obs value": "97 % of control"}
